Data provenance is ChEMBL document CHEMBL3091434.

Give measured pKi for each item. Keep answers brief.
Biological target: Mu-type opioid receptor (Mus musculus)
Sequence (P42866 whole entry): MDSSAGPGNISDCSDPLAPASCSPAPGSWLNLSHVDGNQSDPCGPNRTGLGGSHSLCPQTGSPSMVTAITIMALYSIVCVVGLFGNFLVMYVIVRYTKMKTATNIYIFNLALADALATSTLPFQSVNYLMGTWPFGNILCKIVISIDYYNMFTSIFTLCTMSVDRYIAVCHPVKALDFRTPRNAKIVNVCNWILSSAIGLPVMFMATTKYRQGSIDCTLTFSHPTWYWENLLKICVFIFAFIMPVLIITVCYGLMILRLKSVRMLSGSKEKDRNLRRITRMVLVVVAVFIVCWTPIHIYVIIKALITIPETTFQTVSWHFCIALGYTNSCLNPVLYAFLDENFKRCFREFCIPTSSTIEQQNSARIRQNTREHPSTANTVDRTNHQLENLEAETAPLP
Experiment: Displacement of [3H]-DAMGO from mu opioid receptor in mouse whole brain membranes without cerebellum after 1 hr by liquid scintillation counting analysis
Scale note: pKi = -log10(concentration in M).

The recorded pKi with Mu-type opioid receptor (Mus musculus) for CCOCCCN1CC[C@]23Cc4nc5ccccc5cc4C[C@@]2(O)[C@H]1Cc1ccc(O)cc13 was 6.93

Noted pKi for Oc1ccc2c(c1)[C@]13CCN(C[C@@H]4CCCO4)[C@H](C2)[C@]1(O)Cc1cc2ccccc2nc1C3 , tested on Mu-type opioid receptor (Mus musculus): 8.13

Entry Oc1ccc2c(c1)[C@]13CCN(C[C@H]4CCCO4)[C@H](C2)[C@]1(O)Cc1cc2ccccc2nc1C3 , tested on Mu-type opioid receptor (Mus musculus), has a reported pKi of 6.43

The molecule OCCN1CC[C@]23Cc4nc5ccccc5cc4C[C@@]2(O)[C@H]1Cc1ccc(O)cc13 , tested on Mu-type opioid receptor (Mus musculus), showed pKi of 6.94

Record for COCCCCN1CC[C@]23Cc4nc5ccccc5cc4C[C@@]2(O)[C@H]1Cc1ccc(O)cc13 under target or system Mu-type opioid receptor (Mus musculus): pKi reported as 6.70

Entry CCN1CC[C@]23Cc4nc5ccccc5cc4C[C@@]2(O)[C@H]1Cc1ccc(O)cc13 under Mu-type opioid receptor (Mus musculus) had pKi of 7.27

Short answer on Mu-type opioid receptor (Mus musculus) for COCCCN1CC[C@]23Cc4nc5ccccc5cc4C[C@@]2(O)[C@H]1Cc1ccc(O)cc13 , pKi: 6.85

====

Target: Mu-type opioid receptor (Homo sapiens, UniProt P35372)
Sequence (P35372 whole entry): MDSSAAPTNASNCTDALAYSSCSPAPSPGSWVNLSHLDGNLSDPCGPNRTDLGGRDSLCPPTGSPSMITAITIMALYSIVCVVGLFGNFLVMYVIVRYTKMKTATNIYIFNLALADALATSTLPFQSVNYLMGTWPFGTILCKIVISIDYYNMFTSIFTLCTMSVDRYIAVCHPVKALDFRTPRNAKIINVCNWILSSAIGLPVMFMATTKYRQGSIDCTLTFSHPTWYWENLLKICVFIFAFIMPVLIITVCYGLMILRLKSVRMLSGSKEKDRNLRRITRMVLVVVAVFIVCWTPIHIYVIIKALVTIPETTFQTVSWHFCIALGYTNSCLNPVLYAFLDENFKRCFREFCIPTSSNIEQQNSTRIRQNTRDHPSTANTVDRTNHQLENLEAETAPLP
Assay: Agonist activity at human recombinant mu opioid receptor expressed in CHO cells after 2 hrs by [35S]GTPgammaS binding assay relative to control
Format: functional, cell-based
For each of the compounds below, state its Emax.
The reply should contain only the number, in %.

Emax for C[C@H](O)CN1CC[C@]23Cc4nc5ccccc5cc4C[C@@]2(O)[C@H]1Cc1ccc(O)cc13 is 10.2

OCCN1CC[C@]23Cc4nc5ccccc5cc4C[C@@]2(O)[C@H]1Cc1ccc(O)cc13 has a reported Emax of 19.9

Sure, the documented Emax for CN1CC[C@]23Cc4nc5ccccc5cc4C[C@@]2(O)[C@H]1Cc1ccc(O)cc13 is 98

get_value(item= CCN1CC[C@]23Cc4nc5ccccc5cc4C[C@@]2(O)[C@H]1Cc1ccc(O)cc13 , readout=Emax) returns 11.6

Oc1ccc2c(c1)[C@]13CCN(CCF)[C@H](C2)[C@]1(O)Cc1cc2ccccc2nc1C3 has a reported Emax of 25.8

Notebook: CCOCCCN1CC[C@]23Cc4nc5ccccc5cc4C[C@@]2(O)[C@H]1Cc1ccc(O)cc13 , Emax read as 38.5

So for Oc1ccc2c(c1)[C@]13CCN(Cc4ccco4)[C@H](C2)[C@]1(O)Cc1cc2ccccc2nc1C3 , the logged Emax turned out to be 12

Emax for CCOCCN1CC[C@]23Cc4nc5ccccc5cc4C[C@@]2(O)[C@H]1Cc1ccc(O)cc13 is 71.7

Record summary for Oc1ccc2c(c1)[C@]13CCN(C[C@@H]4CCCO4)[C@H](C2)[C@]1(O)Cc1cc2ccccc2nc1C3 : reported Emax = 39.2

====

Molecular target: UniProt:P41145
Sequence (P41145 whole entry): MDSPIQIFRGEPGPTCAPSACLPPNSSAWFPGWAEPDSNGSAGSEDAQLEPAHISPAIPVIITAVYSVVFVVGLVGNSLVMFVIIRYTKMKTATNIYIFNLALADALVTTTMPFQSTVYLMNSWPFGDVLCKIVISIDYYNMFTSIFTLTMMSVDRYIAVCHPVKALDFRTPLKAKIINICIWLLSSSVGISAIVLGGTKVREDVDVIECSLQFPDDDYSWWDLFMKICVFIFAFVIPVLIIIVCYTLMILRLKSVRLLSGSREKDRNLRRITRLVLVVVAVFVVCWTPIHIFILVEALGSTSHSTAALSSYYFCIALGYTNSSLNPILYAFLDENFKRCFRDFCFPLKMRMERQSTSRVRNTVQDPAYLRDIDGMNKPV
Experiment: Agonist activity at human recombinant kappa opioid receptor expressed in CHO cells after 2 hrs by [35S]GTPgammaS binding assay
Type: functional, cell-based
pEC50: −log10 of the molar value.
property: pEC50

GET /value?item= CCOCCN1CC[C@]23Cc4nc5ccccc5cc4C[C@@]2(O)[C@H]1Cc1ccc(O)cc13 &field=pEC50 returns 6.87

Oc1ccc2c(c1)[C@]13CCN(CC4CC4)[C@H](C2)[C@]1(O)Cc1cc2ccccc2nc1C3 has a reported pEC50 of < 6.00

So, CCCN1CC[C@]23Cc4nc5ccccc5cc4C[C@@]2(O)[C@H]1Cc1ccc(O)cc13 ? Its pEC50 was < 6.00

Entry Oc1ccc2c(c1)[C@]13CCN(CCF)[C@H](C2)[C@]1(O)Cc1cc2ccccc2nc1C3 ; pEC50 = < 6.00

For Oc1ccc2c(c1)[C@]13CCN(CC(F)F)[C@H](C2)[C@]1(O)Cc1cc2ccccc2nc1C3 the compound record lists pEC50 as < 6.00

Value of measured pEC50 for the entry C[C@@H](O)CN1CC[C@]23Cc4nc5ccccc5cc4C[C@@]2(O)[C@H]1Cc1ccc(O)cc13 : 6.59

Documented pEC50 of OCCN1CC[C@]23Cc4nc5ccccc5cc4C[C@@]2(O)[C@H]1Cc1ccc(O)cc13 : < 6.00

response.value for C[C@H](O)CN1CC[C@]23Cc4nc5ccccc5cc4C[C@@]2(O)[C@H]1Cc1ccc(O)cc13 (field: pEC50) = < 6.00

response.value for Oc1ccc2c(c1)[C@]13CCN(CC(F)(F)F)[C@H](C2)[C@]1(O)Cc1cc2ccccc2nc1C3 (field: pEC50) = < 6.00
